# experiment_notes: HILIC, Waters ACQUITY UPLC BEH Amide, 100 × 2.1 mm, 1.7 µm; A: water + 0.125% formic acid + 10 mM ammonium formate; B: 5% water + 95% acetonitrile + 0.125% formic acid + 10 mM ammonium formate; gradient (min/%B) 0/100 2/100 7.7/70 9.5/40 10.25/30 12.75/100 17/100
# run_parameters: stereoisomer not certain
measurement_label: log10 LC retention time (log10 of the value in min)
Base-10 log of LC retention time, unit min.

Each compound below has a recorded value; state its log10 LC retention time.
1. NCC(=O)N1CCCC1C(=O)O (stereo unspecified)
2. CCOC(=O)c1ccc(OC(=O)CCCCCN=C(N)N)cc1 [Gabexate]
3. Cc1cc2nc[nH]c2cc1C
4. CCCCCC=CCC=CCC=CCC=CCCCC(=O)Nc1ccc(O)cc1
5. OCc1ccccc1OC1OC(CO)C(O)C(O)C1O (stereo unspecified)

Data returned:
0.94
0.54
0.26
-0.01
0.65
